// data source = patent US12590091B2

molecular target: human TLR9 (Homo sapiens, UniProt Q9NR96); assay: TLR9 inhibition reporter assay (HEK-Blue cells, SEAP reporter); conditions: HEK-Blue cells overexpressing human TLR9, stimulated with ODN2006 5 nM, 22 hour incubation
Sequence (Q9NR96 26-1032): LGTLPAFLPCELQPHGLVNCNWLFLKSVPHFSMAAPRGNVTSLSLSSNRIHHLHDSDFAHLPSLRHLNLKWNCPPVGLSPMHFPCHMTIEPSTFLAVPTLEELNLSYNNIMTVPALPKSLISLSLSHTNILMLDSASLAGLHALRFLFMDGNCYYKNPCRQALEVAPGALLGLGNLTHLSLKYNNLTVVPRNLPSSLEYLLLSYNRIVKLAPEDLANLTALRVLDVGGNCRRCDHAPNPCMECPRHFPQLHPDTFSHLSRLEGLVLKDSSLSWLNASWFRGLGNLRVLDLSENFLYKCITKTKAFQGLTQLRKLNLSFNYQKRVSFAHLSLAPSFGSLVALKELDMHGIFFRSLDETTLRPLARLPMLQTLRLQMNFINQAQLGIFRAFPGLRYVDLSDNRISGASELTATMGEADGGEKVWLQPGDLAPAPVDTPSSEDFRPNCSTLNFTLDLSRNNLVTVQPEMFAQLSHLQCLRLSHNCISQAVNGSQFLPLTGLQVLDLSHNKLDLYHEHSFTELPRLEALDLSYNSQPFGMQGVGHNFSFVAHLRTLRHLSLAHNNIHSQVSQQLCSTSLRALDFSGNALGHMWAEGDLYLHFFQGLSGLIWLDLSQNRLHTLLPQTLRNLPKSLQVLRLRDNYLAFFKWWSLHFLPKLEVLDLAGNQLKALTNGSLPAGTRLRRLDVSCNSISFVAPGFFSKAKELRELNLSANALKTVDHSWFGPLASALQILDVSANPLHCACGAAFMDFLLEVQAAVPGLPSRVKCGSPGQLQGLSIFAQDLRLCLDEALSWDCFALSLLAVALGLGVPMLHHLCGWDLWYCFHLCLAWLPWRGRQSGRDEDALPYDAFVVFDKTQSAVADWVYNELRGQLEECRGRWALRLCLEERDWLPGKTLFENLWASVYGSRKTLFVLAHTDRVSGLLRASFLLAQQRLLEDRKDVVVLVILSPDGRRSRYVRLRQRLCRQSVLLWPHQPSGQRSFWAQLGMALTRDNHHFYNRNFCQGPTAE
OBSERVED PROPERTY: IC50 (nM)

Cc1nc(-c2ccc(C3(O)CCN(C(C)(C)C)CC3)cc2F)cc2c1cc(-c1ccc(S(C)(=O)=O)cc1)n2C [Example 108]	204

A. COCCN1CCN(c2ccc(-c3cc4c(cc(-c5ccc(S(=O)(=O)N(C)C)cc5)n4C)c(C)n3)cc2)CC1 [Example 51]
B. Cc1nc(-c2ccc(N3CCN(CCCO)CC3)cc2)cc2c1cc(-c1ccc(S(=O)(=O)C3CC3)cc1)n2C [Example 47]
C. Cc1nc(-c2ccc(C3(O)CCN(C(C)C)CC3)cc2F)cc2c1cc(-c1ccc(S(C)(=O)=O)cc1)n2C [Example 109]
Query: Please list the entries, largest IC50 first. Answer by writing out the labels in the requested order.
Result: C, B, A
(C: 188 nM, B: 77 nM, A: 44 nM)

* * *

Target: UniProt Q9NR97
Test: TLR8 inhibition reporter assay (HEK-Blue cells, SEAP reporter)
Settings: HEK-Blue cells overexpressing human TLR8, stimulated with R848 15.9 μM, 22 hour incubation
Excerpt: TLR7/8/9 Inhibition Reporter Assays HEK-Blue™-cells (Invivogen) overexpressing human TLR7, TLR8 or TLR9 receptors were used for screening inhibitors of these receptors using an inducible SEAP (secreted embryonic alkaline phosphatase) reporter gene under the control of the IFN-β minimal promoter fused to five NF-κB and AP-1-binding sites. […]
OBSERVED PROPERTY: IC50 (µM)

Known results for compounds:
Cc1nc(-c2ccc(N3CCN4CCCC4C3)c(F)c2F)cc2c1cc(-c1ccc(S(C)(=O)=O)cc1)n2C (stereo not shown)	6
CC(C)(O)CN1CC2CCC(C1)N2Cc1ccc(-c2cc3c(cn2)cc(-c2ccc(S(C)(=O)=O)cc2)n3C2CC2)cc1	6.4
Cc1nc(-c2ccc(C3(O)CCN(C(C)C)CC3)cc2)cc2c1cc(-c1ccc(S(C)(=O)=O)cc1)n2C	10.5
COCCN1CCN(c2ccc(-c3cc4c(cc(-c5ccc(S(C)(=O)=O)cc5)n4C)c(C)n3)cc2)CC1	11.8

A. COCCN1C2CCC1CN(c1cc(F)c(-c3cc4c(cc(-c5ccc(S(C)(=O)=O)cc5)n4C)c(C)n3)cc1F)C2
B. Cc1nc(-c2ccc(CN3CCN(CCCO)CC3)cc2)cc2c1cc(-c1ccc(S(C)(=O)=O)cc1)n2C
Query: Hey, which is lower on measured IC50, A or B ? Answer by quoting the chosen item's label.
Result: A
(A: 9.4 µM, B: 17.8 µM)

* * *

biological target: human TLR8 (Homo sapiens); assay: TLR8 inhibition reporter assay (HEK-Blue cells, SEAP reporter); settings: HEK-Blue cells overexpressing human TLR8, stimulated with R848 15.9 μM, 22 hour incubation
Sequence (Q9NR97 27-1041): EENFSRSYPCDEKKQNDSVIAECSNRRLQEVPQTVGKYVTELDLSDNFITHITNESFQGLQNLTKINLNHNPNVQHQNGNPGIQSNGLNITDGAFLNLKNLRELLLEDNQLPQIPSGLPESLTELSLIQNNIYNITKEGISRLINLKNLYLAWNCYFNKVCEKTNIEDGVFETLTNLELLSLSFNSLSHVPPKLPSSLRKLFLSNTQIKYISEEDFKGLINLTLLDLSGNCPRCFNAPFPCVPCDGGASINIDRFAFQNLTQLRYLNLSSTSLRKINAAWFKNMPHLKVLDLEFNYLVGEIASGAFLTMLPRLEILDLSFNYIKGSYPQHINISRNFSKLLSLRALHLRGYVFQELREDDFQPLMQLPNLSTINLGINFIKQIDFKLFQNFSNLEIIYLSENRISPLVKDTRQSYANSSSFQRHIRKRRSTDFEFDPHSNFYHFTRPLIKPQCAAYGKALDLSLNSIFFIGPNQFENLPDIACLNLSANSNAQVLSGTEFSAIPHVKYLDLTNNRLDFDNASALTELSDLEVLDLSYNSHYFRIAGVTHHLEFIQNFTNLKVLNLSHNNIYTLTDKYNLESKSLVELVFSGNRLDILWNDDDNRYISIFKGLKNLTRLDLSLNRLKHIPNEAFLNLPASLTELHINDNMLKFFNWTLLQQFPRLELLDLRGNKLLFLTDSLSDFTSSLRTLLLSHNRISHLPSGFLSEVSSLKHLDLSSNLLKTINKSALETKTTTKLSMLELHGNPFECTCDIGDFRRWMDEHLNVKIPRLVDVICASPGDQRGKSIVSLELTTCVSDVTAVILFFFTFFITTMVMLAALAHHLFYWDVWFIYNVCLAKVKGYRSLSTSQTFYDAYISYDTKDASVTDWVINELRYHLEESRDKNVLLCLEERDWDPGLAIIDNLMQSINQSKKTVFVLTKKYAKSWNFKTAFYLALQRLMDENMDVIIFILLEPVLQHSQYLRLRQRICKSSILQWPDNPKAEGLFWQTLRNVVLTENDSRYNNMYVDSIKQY
OBSERVED PROPERTY: IC50 (µM)

Known results for compounds:
Cc1nc(-c2ccc(CN3CCN(CCC(C)(C)O)CC3)cc2)cc2c1cc(-c1ccc(S(C)(=O)=O)cc1)n2C	4.6
Cc1nc(-c2ccc(C3(O)CCN(C(C)(C)C)CC3)c(F)c2)cc2c1cc(-c1ccc(S(C)(=O)=O)cc1)n2C	2.1
Cc1nc(-c2ccc(CN3C[C@@H]4CC[C@H]3CN4CCC(C)(C)O)cc2)cc2c1cc(-c1ccc(S(C)(=O)=O)cc1)n2C	0.86
Cc1nc(-c2cc(F)c(N3CCN(CCCO)CC3)cc2F)cc2c1cc(-c1ccc(S(C)(=O)=O)cc1)n2C	13.2
Cc1nc(-c2ccc(CN3CCN(CC(C)(C)O)CC3)cc2)cc2c1c(F)c(-c1ccc(S(C)(=O)=O)cc1)n2C	3.7

P. Cc1nc(-c2ccc(CN3CCN(CC(C)(C)O)CC3)cc2)cc2c1cc(-c1ccc(S(C)(=O)=O)cc1)n2C
Q. Cc1nc(-c2ccc(CN3CCN(CC(C)(C)O)CC3)cc2)cc2c1cc(-c1ccc(S(C)(=O)=O)cc1)n2C1CC1
Query: Between P and Q , whose measured IC50 reads higher? Answer by quoting the chosen item's label.
Result: Q
(Q: 17.6 µM, P: 1.2 µM)

I. COc1ccc(-c2cc3cnc(-c4ccc(N5CCN(C(=O)c6ccccc6)CC5)cc4)cc3n2C)cc1OC
II. CC(C)(O)CCN1CCN(Cc2ccc(-c3cc4c(cn3)cc(-c3ccc(S(C)(=O)=O)cc3)n4C3CC3)cc2)CC1
Query: Hey, which is lower on measured IC50, I or II ? Answer by quoting the chosen item's label.
Result: II
(II: 5.6 µM, I: 8.2 µM)
